B1: LINE1-full (parent)
chain: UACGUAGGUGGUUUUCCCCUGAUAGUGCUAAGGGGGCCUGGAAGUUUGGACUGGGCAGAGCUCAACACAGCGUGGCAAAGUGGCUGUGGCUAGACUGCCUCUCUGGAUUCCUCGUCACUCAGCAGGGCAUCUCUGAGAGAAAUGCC

variants of: B1; assay: self-cleavage, relative activity (ratio to wild type); higher = more cleavage; in vitro, sequencing; the parent is a self-cleaving ribozyme
Label 1 when self-cleavage >= 1; otherwise 0.

Use the examples below as a reference point.
[
  {
    "RESIDUE SEQUENCE": "UACGUAGGUGGUUUUCCCCUGAUAGUGCUAAGGGGGCCUGGAAGUUUGGACUGGGCAGAGCUCAACACAGCGUGGCAAGGUGGCUGUGGCUAGUCUGCCUCUCUGGAUUCCUCGUCACUCAGCAGGGCAUCUCUGAGAGAAAUGCC",
    "CLASSIFICATION": 0
  },
  {
    "RESIDUE SEQUENCE": "UACGUAGGUGGUUUUCCCCUGAUAGUGCUAAGGGGGCCUGGUAGUUUGGACUGGGCAGAGCUCAACACAGCGUGGCAAAGUGGCUGUGGCUAGACUGCCUCUCUGGAUUCCUCGUCACUCCGCAGGGCAUCUCUGAGAGAAAUGCC",
    "CLASSIFICATION": 1
  },
  {
    "RESIDUE SEQUENCE": "UACGUAGGUGGUUUUCCCCUGAUGGUGCUAAGGGGGCCUGGAAGUUUGGACUGGGCAGAGCUCAACACAGCGUGGCAAAGUGGCUGUGGCUAGACUGCCUCUCUGGAAUCCUCGUCACUCAGCAGGGCAUCUCUGAGAGAAAUGCC",
    "CLASSIFICATION": 1
  },
  {
    "RESIDUE SEQUENCE": "UACGUAGGUGGUUUUCCCCUGAUAGUGCUAAGGGGGCCGGGAAGUUUGGACAGGGCAGAGCUCAACACAGCGUGGCAAAGUGGCUGUGGCUAGACUGCCUCUCUGGAUUCCUCGUCACUCAGCAGGGCAUCUCUGAGAGAAAUGCC",
    "CLASSIFICATION": 1
  }
]

Determine whether this variant has self-cleavage no lower than 1: UACGUAGGUGGUUUUCCCCUGAUAGUGCUAAGGGGGCCUGGAAGUUUGGACUGGGCAGAGCUCAAUACAGCGUGGCAAAGUGGCUGUGGCUAGACAGCCUCUCUGGAUUCCUCGUCACUCAGCAGGGCAUCUCUGAGAGAAAUGCC
0

Query UACGUAGGUGGUUUUCCCCUGAUAGAGCUAAGGGGGCCUGGAAGUUUGGACUGGGCAGAGCUCAACACAGCGUGGCAAAGUGGCUGUAGCUAGACUGCCUCUCUGGAUUCCUCGUCACUCAGCAGGGCAUCUCUGAGAGAAAUGCC next
0

Query UACGUAGGUGGUUUUCCCCUGAUAGUGCUAAGGGGGCCUGGAAGUUUGGACUGGGCAGAGCUCAACACAGCGUGGCAAAGUGGCUGUGGCUUGACUGCCUCUCUGGAUUCCUCGUCACUCAGCAGGGCAUCUCUGAGAGAAGUGCC next
0

Query UACGUAGGUGGUUUUCCCCUGAUAGUGCUGAGGGGGCCUGGAAGUUUGGACUGGGCAGAGCUCAACACAGCGUGGCAAAGUGGCUGUCGCUAGACUGCCUCUCUGGAUUCCUCGUCACUCAGCAGGGCAUCUCUGAGAGAAAUGCC next
0

Query UACGUAGGUGGUUUUCCCCUGAUAGUGCUAAGGGGGCCUGGAAGUUUGGACGGGGCGGAGCUCAACACAGCGUGGCAAAGUGGCUGUGGCUAGACUGCCUCUCUGGAUUCCUCGUCACUCAGCAGGGCAUCUCUGAGAGAAAUGCC next
0

Query UACGUAGGAGGUUUUCCCCUGAUAGUGCUAAGGGGGCCUGGAAGUUUGGACUGGGCAGAGCUCAACACAGCGUGGCAAAGUGGCUGUGGCUAGACUGCCUCUCUGGAUUCCUCCUCACUCAGCAGGGCAUCUCUGAGAGAAAUGCC next
0

Query UACGUAGGUGGUUUUCCCCUGAUAGUGCUAAGGGGGCCUGGAAGUUUGGACUGGGCAGAGCUCAAUACAGCGUGGCAAAGUGGCUGUGGCUAGACUGCCUCUCUGGAUUCCUCGUCACUCAGCAGGGCAUCUCUGAGAGAAGUGCC next
0

Query UACGUAGGUGGUUUUCCCCUGAUAGUGCAAAGGGGGCCUGGAAGUUUGGACUGGGCAGAGCUCAACACAGCGUGGCAAAGUGGCUGUGGCUAGACUGCCUCUCUGGAUUCCUCGUCACCCAGCAGGGCAUCUCUGAGAGAAAUGCC next
0

Query UACGUAGGUGGUUUUCCCCUGAUAGUGCUAAGGGGGCCUGGAAGUUUGGACUGGGCAGAGCUCAACACAGCGUGGCAAAGUGGCUGUGGCUAGCCUGCCUCUCUGGAUUCCUCGACACUCAGCAGGGCAUCUCUGAGAGAAAUGCC next
0

Query UACUUAGGUGGUUUUCCCCUGAUAGUGCUAAGGGGGCCUGGAAGUUUGGACUGGGCAGAGCUCAACACAGCGUGGCAAAGUGGCUGUGGCUAGACUGCCUCUCUGGAUUCCUCGUCACUCAGCAGGGCAUCUCUGAGAGAAAUGCC next
1
